biological target: T1, MET Proto-Oncogene, Receptor Tyrosine Kinase (MET), on cells (human, UniProt P08581 25-1390); assay: flow cytometry titration on Detroit-562 cells (125K/cell), pH 7.4; printed as Affinity at pH 7.4
T1 construct: also called cMET; c-Met
T1 sequence (P08581 25-1390): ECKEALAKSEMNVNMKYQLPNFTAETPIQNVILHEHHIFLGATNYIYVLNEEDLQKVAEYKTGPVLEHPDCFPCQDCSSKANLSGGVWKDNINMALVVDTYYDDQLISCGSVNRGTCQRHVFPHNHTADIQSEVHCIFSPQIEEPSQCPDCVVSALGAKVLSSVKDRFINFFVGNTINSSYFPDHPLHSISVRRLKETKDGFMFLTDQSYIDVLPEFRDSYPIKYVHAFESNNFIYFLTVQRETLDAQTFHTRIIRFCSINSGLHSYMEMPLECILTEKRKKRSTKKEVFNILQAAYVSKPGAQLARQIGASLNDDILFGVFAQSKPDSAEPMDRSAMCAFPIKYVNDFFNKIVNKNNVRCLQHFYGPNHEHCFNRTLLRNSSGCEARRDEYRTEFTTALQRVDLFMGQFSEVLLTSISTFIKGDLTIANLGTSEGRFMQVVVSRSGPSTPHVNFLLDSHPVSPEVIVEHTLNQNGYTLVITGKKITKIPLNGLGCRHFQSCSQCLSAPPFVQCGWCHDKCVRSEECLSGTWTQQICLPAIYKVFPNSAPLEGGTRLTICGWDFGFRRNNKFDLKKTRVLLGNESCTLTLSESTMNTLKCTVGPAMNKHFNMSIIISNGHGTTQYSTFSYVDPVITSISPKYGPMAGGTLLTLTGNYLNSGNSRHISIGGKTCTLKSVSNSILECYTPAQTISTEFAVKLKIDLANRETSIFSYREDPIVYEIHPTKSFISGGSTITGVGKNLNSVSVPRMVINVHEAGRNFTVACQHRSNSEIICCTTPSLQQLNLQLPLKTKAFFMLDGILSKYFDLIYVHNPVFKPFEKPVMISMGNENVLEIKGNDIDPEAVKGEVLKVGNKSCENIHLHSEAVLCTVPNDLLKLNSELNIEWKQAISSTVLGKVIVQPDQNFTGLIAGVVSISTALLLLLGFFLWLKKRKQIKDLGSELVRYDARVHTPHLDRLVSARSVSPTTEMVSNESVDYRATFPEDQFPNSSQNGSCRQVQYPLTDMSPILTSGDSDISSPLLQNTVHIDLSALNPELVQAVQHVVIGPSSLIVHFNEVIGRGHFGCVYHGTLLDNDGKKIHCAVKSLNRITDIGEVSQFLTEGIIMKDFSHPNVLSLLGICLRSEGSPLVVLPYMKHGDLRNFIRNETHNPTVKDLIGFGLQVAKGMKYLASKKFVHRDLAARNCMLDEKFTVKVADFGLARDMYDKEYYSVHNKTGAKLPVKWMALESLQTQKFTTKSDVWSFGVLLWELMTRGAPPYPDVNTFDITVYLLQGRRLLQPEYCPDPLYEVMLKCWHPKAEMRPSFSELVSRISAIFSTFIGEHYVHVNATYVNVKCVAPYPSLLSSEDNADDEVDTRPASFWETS
MEASURED ATTRIBUTE: Kd (pM)
State just the number; it will be interpreted in pM.

For record MYT4305 (P3D12) (antibody, V domains shown, Human IgG1; also called P3D12 anti-cMET) VH: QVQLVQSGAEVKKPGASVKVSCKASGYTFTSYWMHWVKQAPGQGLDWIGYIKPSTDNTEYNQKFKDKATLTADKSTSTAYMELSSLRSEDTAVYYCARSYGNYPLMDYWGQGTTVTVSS VL: QIVLTQSPAILSLSPGERATLSCSASSSVTSNYLYWYQQKPGSSPKLLIYSTSNLASGVPARFSGSGSGTSYTLTISSLEAEDAASYFCHQWSSYPPTFGSGTKLEIK the listed Kd is 292
